assay: in vitro; conditions: rhesus monkey
reportedProperty: CC50 (µM)
Answer in µM, number only, no unit symbol.

Look at this compound and give its reported CC50. C/C=C/C[C@@H](C)[C@@H](O)[C@H]1C(=O)N[C@@H](CC)C(=O)N(C)[C@H](C)C(=O)N(CC)[C@@H](C(C)C)C(=O)N[C@@H](C(C)C)C(=O)N(C)[C@@H](CC(C)C)C(=O)N[C@@H](C)C(=O)N[C@H](C)C(=O)N(C)[C@@H](CC(C)C)C(=O)N(C)[C@@H](CC(C)C)C(=O)N(C)[C@@H](C(C)C)C(=O)N1C [ALV, alisporivir]
14.3

---

assay: in vitro; details: mouse
reportedProperty: viability

Look at this molecule and give its reported viability. C/C=C/C[C@@H](C)[C@@H](O)[C@H]1C(=O)N[C@@H](CC)C(=O)N(C)[C@H](C)C(=O)N(CC)[C@@H](C(C)C)C(=O)N[C@@H](C(C)C)C(=O)N(C)[C@@H](CC(C)C)C(=O)N[C@@H](C)C(=O)N[C@H](C)C(=O)N(C)[C@@H](CC(C)C)C(=O)N(C)[C@@H](CC(C)C)C(=O)N(C)[C@@H](C(C)C)C(=O)N1C
> 85%

Values compiled from paper PMC7114565.
